Biological target: amylin receptor (nucleus accumbens membranes prepared from rat brain) (rat, UniProt P32214 25-516)
Sequence (P32214 25-516): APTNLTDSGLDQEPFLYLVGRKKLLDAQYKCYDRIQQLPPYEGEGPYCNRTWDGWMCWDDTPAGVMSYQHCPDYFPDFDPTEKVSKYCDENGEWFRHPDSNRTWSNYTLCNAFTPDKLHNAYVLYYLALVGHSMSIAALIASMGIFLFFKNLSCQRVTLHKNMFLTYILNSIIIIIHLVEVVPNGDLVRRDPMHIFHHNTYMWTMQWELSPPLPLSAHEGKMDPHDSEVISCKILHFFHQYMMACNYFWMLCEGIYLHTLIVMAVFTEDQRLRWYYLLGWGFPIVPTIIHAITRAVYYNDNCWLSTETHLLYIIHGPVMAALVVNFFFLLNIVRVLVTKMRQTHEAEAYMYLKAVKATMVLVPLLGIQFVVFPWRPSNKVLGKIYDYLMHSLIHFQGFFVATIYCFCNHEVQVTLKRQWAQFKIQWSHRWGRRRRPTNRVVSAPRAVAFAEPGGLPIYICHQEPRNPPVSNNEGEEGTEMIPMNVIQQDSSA
Assay: radioligand displacement, 125I-rat amylin, rat nucleus accumbens membranes
Ends that are not written are not given here.
measured-attribute: pIC50
A value of pIC50 is the negative decimal logarithm of a concentration given in moles per litre.

Example cases with answers are listed next.
VCNTATCQVQNLSHRLWQLRQDSAPVDPSSPHSY-NH2 (ends and bridges not checked) [AFP-6 analog SEQ ID NO: 30] ... 7.72
GCNTATCQVQNLSHRLWQLRQDSAPVEPSSPHSY-NH2 (ends and bridges not checked) [AFP-6 analog SEQ ID NO: 37] ... 7.41
GCGNLSTCQVQNLSHRLWQLRQDSAPVEPSSPHSY-NH2 (ends and bridges not checked) [AFP-6 analog SEQ ID NO: 39] ... 7.85
TQAQLLRVGCVLGTCQVQNLSHRLWQLRQDSAPVDPSSPHSY-NH2 (ends and bridges not checked) [AFP-6 analog SEQ ID NO: 16] ... 7.68

Kindly review the next binder as well.
Input: Specify pIC50 for GCNTATCQVQNLSHRLWQLRQDSAPVDPSSPHSY-NH2 (ends and bridges not checked) [AFP-6 analog SEQ ID NO: 31] and stop.
Output: 7.92
